Molecular target: GkApcT (Geobacillus kaustophilus, UniProt Q5L1G5, M321S)
Construct: cleavable GFP-His tag (pWaldo-GFP) removed with TEV; co-purifies with E. coli MgtS; purified in DM/DDM, reconstituted in POPE:POPG liposomes
Sequence (Q5L1G5 1-471 M321S): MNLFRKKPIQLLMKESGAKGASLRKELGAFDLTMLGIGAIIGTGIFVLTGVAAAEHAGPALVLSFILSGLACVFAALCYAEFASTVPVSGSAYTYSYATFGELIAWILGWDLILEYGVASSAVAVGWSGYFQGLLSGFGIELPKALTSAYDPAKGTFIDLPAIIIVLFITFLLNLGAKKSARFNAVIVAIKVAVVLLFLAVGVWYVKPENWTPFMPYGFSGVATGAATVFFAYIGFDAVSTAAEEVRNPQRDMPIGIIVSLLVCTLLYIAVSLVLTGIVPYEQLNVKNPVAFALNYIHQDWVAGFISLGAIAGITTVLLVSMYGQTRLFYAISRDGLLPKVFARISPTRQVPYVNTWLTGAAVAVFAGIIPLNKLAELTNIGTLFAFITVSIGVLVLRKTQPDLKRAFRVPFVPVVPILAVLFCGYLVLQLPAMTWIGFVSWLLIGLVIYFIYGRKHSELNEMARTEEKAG
Assay: electrogenic 3H-L-Ala uptake competition in proteoliposomes
observed_property: pIC50
Scale for pIC50: -log10 of concentration given in mol/L; no unit attached.

Tell me reported pIC50 for `N=C(N)NCCC[C@H](N)C(=O)O` , tested with GkApcT (Geobacillus kaustophilus, UniProt Q5L1G5, M321S).
4.94

====

Target: GkApcT (Geobacillus kaustophilus, UniProt Q5L1G5, R334E)
Construct: cleavable GFP-His tag (pWaldo-GFP) removed with TEV; co-purifies with E. coli MgtS; purified in DM/DDM, reconstituted in POPE:POPG liposomes
Sequence (Q5L1G5 entry or part of it R334E): as the sequence (Q5L1G5 1-471 M321S) above, with S321M, R334E counted along it
Assay: electrogenic 3H-L-Ala uptake competition in proteoliposomes
observed_property: IC50 (nM)
Your answer is read as nM, so omit the unit and give the number.

Quick check: IC50 of `C[C@H](N)C(=O)O` ?
400
